- assayed-system: T1, 4H346-bN
- T1 chain: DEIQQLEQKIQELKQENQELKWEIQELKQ
- test-details: two-hybrid library CCNG1;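 further: natural log of median RNA to DNA barcode read ratio; higher means stronger binding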
readout-kind: interaction score

Before answering, review these 3 worked examples.
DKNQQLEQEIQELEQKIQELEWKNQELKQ [4H3112-bN]    0.282
DEIQQLEQEIQELKQKIQELKWKNQELKQ [4H112-bN]    -0.486
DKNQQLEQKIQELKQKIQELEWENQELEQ [4H3427-bN]    -2.04

(1) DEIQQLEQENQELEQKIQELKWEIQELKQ [4H170-bN]
(2) DENQQLKQKIQELEQKIQELEWKNQELEQ [4H1831-bN]
input: Between 1 and 2 , whose recorded interaction score is greater? Answer = label.
output: 2
